biological target: HIPK3 (human) (UniProt Q9H422); assay: radiometric filter-binding kinase assay, Kinase HotSpot; conditions: compound 0.5 µM; ATP 10 µM
Sequence (Q9H422 whole entry, looked up): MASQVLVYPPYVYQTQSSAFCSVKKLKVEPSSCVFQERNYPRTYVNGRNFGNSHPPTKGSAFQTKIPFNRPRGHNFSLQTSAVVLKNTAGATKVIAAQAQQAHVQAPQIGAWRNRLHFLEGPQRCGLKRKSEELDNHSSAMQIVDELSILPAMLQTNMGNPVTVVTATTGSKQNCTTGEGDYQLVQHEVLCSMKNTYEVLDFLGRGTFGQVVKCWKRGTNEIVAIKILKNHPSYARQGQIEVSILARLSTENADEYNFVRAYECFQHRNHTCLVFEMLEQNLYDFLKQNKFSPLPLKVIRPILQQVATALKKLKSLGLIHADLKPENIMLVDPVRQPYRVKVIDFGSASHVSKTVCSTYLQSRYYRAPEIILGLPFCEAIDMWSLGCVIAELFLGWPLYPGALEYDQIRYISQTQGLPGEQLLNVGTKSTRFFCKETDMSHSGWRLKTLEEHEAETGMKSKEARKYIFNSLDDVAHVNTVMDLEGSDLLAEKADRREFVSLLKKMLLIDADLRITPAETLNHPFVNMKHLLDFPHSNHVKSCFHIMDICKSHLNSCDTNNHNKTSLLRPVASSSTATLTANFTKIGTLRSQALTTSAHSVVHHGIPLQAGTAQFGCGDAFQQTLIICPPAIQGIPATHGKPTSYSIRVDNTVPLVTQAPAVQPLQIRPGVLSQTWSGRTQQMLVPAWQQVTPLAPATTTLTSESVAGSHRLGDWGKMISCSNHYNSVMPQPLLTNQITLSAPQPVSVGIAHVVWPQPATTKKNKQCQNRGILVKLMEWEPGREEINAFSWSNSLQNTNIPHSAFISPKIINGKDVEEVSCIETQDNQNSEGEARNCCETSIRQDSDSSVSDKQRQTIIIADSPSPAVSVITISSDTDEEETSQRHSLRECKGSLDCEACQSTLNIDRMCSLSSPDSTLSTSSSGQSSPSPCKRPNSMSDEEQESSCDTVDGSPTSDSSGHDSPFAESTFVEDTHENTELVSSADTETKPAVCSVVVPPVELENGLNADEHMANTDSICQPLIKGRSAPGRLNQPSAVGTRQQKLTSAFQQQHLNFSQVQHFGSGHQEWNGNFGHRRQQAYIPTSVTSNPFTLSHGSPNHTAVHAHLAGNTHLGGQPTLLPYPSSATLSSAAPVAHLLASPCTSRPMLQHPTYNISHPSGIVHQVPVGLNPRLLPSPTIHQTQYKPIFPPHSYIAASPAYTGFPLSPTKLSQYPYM
Quantity kind: residual activity (%)

INSERT INTO measurements (structure_notation, reading_unit, experimental_value) VALUES
  ('O=c1cc(N2CCOCC2)oc2c(-c3ccccc3)cccc12', '%', 120),
  ('CCCCc1c(-c2ccc(O)cc2)[nH]c2nccnc12', '%', 100),
  ('O=C1NC(=O)c2c1c1c3ccccc3[nH]c1c1[nH]c3cc(Br)ccc3c21', '%', 93.3),
  ('O=c1[nH]c2ccccc2n1C1CCN(Cc2ccc(-c3nc4cc5[nH]cnc5cc4nc3-c3ccccc3)cc2)CC1', '%', 102),
  ('Nc1ncnc2c1cnn2-c1ccccc1', '%', 97.6),
  ('COc1cccc(-c2cc(=O)c3ccccc3o2)c1N', '%', 101),
  ('FC(F)(F)c1ccc(/C=C/c2nc(COc3ccc(CCCCn4ccnn4)cc3)co2)cc1', '%', 100),
  ('Cc1cc(Nc2nc(-c3ccccc3)nc3ccccc23)n[nH]1', '%', 88.5),
  ('O=C1NC(=O)c2cc(Nc3ccc(F)cc3)c(Nc3ccc(F)cc3)cc21', '%', 95.3),
  ('CCOc1cc2ncnc(Nc3cccc(Br)c3)c2cc1OCC', '%', 102),
  ('N#Cc1c(NC(=O)c2cccc3ccccc23)sc2c1CCCC2', '%', 116),
  ('COc1cc2ncnc(Nc3ccc(O)c(Br)c3)c2cc1OC', '%', 67.7),
  ('O=C(O)c1ccc2c3c1cccc3c(=O)n1c3ccccc3nc21', '%', 103),
  ('COc1cc2c(Nc3ccc(Br)cc3F)ncnc2cc1OCC1CCN(C)CC1', '%', 99.5),
  ('O=c1c(-c2ccc(F)cc2)c(-c2ccncc2)[nH]n1-c1ccc(Cl)cc1', '%', 101),
  ('O=S(=O)(NCCNC/C=C/c1ccc(Br)cc1)c1cccc2cnccc12', '%', 81.7),
  ('O=C(c1ccccc1)c1ccc(N2CCOCC2)cc1O', '%', 98.1),
  ('N#C/C(=C1/Nc2ccccc2S1)c1ccnc(NCCc2cccnc2)n1', '%', 106),
  ('COc1cc2c(N3CCN(C(=O)Nc4ccc(OC(C)C)cc4)CC3)ncnc2cc1OCCCN1CCCCC1', '%', 101),
  ('N#CCCc1ccc2c(c1)-c1[nH]c3ccc([N+](=O)[O-])cc3c1CC(=O)N2', '%', 104),
  ('c1ccc(-c2cnc(Nc3ccc(OCCN4CCCC4)cc3)s2)cc1', '%', 64.8),
  ('O=c1c2ccccc2[nH]c(=S)n1CCN1CCC(=C(c2ccc(F)cc2)c2ccc(F)cc2)CC1', '%', 97.7),
  ('COc1cc2c(cc1OC)-c1[nH]nc(Nc3cccc(F)c3)c1C2', '%', 100),
  ('Cn1cc(/C=C2\C(=O)Nc3ccc(S(N)(=O)=O)cc32)c2ccccc21', '%', 105),
  ('CCc1nc(-c2ccc(OC)cc2)[nH]c1-c1ccncc1', '%', 106);
